test system: Mycobacterium tuberculosis Erdman (autoluminescent); assay: Einf, fitted maximum growth inhibition (fraction); higher = stronger maximal inhibition; conditions: in vitro model: cholesterol 0.05 mM; time point: constant (~7 days, model-specific)
# if value of Einf reaches 0.6, tag fulfilled; if it stays below, tag not fulfilled

CC(C)/N=c1\cc2n(-c3ccc(Cl)cc3)c3ccccc3nc-2cc1Nc1ccc(Cl)cc1 [clofazimine] = not fulfilled
COc1nc2ccc(Br)cc2cc1[C@@H](c1ccccc1)[C@@](O)(CCN(C)C)c1cccc2ccccc12 [bedaquiline] = fulfilled
CC[C@@H](CO)NCCN[C@@H](CC)CO [ethambutol] = fulfilled
CC(=O)NC[C@H]1CN(c2ccc(N3CCOCC3)c(F)c2)C(=O)O1 [linezolid] = fulfilled
COc1c(N2C[C@@H]3CCCN[C@@H]3C2)c(F)cc2c(=O)c(C(=O)O)cn(C3CC3)c12 [moxifloxacin] = fulfilled

Would you kindly look at the next entry?
QUERY: Item O=[N+]([O-])c1cn2c(n1)OC[C@@H](OCc1ccc(OC(F)(F)F)cc1)C2 [pretomanid] with Einf of 0.6 or above?
RESULT: fulfilled

###

test system: Mycobacterium tuberculosis Erdman (autoluminescent); assay: Einf, fitted maximum growth inhibition of three-drug combination (fraction); higher = stronger maximal inhibition; settings: in vitro model: cholesterol-high 0.2 mM; time point: constant (~7 days, model-specific)
TEST_READOUT: Einf
Form rule: numeric answer, no unit written next to it.

CC[C@@H](CO)NCCN[C@@H](CC)CO [ethambutol] + CC(=O)NC[C@H]1CN(c2ccc(N3CCOCC3)c(F)c2)C(=O)O1 [linezolid] + NC(=O)c1cnccn1 [pyrazinamide] = 0.944

Query molecule follows.
QUERY: State the measured Einf (Mycobacterium tuberculosis Erdman (autoluminescent)) of NNC(=O)c1ccncc1 [isoniazid] + O=[N+]([O-])c1cn2c(n1)OC[C@@H](OCc1ccc(OC(F)(F)F)cc1)C2 [pretomanid] + CO[C@H]1/C=C/O[C@@]2(C)Oc3c(C)c(O)c4c(O)c(c(/C=N/N5CCN(C6CCCC6)CC5)c(O)c4c3C2=O)NC(=O)/C(C)=C\C=C\[C@H](C)[C@H](O)[C@@H](C)[C@@H](O)[C@@H](C)[C@H](OC(C)=O)[C@@H]1C [rifapentine]
RESULT: 0.808

###

Collected GRinf values appear next to each entry.
tested on: Mycobacterium tuberculosis Erdman (autoluminescent); test: GRinf, maximum normalised growth rate inhibition (three-drug combination) (unitless (-1 to 1)); higher = less effect (negative = killing); settings: in vitro model: standard 7H9 glycerol; time point: constant = terminal
Form rule: numeric answer, no unit written next to it.

For orientation, consider the following solved cases.
COc1c(N2C[C@@H]3CCCN[C@@H]3C2)c(F)cc2c(=O)c(C(=O)O)cn(C3CC3)c12 [moxifloxacin] + O=[N+]([O-])c1cn2c(n1)OC[C@@H](OCc1ccc(OC(F)(F)F)cc1)C2 [pretomanid] + CO[C@H]1/C=C/O[C@@]2(C)Oc3c(C)c(O)c4c(O)c(c(/C=N/N5CCN(C)CC5)c(O)c4c3C2=O)NC(=O)/C(C)=C\C=C\[C@H](C)[C@H](O)[C@@H](C)[C@@H](O)[C@@H](C)[C@H](OC(C)=O)[C@@H]1C [rifampicin] = 0.162
COc1nc2ccc(Br)cc2cc1[C@@H](c1ccccc1)[C@@](O)(CCN(C)C)c1cccc2ccccc12 [bedaquiline] + CC(=O)NC[C@H]1CN(c2ccc(N3CCOCC3)c(F)c2)C(=O)O1 [linezolid] + CO[C@H]1/C=C/O[C@@]2(C)Oc3c(C)c(O)c4c(O)c(c(/C=N/N5CCN(C)CC5)c(O)c4c3C2=O)NC(=O)/C(C)=C\C=C\[C@H](C)[C@H](O)[C@@H](C)[C@@H](O)[C@@H](C)[C@H](OC(C)=O)[C@@H]1C [rifampicin] = -0.0288

Query compound follows.
QUERY: Give the reported GRinf for this compound. CC[C@@H](CO)NCCN[C@@H](CC)CO [ethambutol] + COc1c(N2C[C@@H]3CCCN[C@@H]3C2)c(F)cc2c(=O)c(C(=O)O)cn(C3CC3)c12 [moxifloxacin] + CO[C@H]1/C=C/O[C@@]2(C)Oc3c(C)c(O)c4c(O)c(c(/C=N/N5CCN(C)CC5)c(O)c4c3C2=O)NC(=O)/C(C)=C\C=C\[C@H](C)[C@H](O)[C@@H](C)[C@@H](O)[C@@H](C)[C@H](OC(C)=O)[C@@H]1C [rifampicin]
RESULT: 0.231

###

test system: Mycobacterium tuberculosis Erdman (autoluminescent); test: AUC25, normalised area under dose response up to IC25 (three-drug combination) (fraction (0-1)); higher = more potent at low dose; details: in vitro model: cholesterol-high 0.2 mM; time point: terminal (~4-5 doublings, model-specific)
TEST_READOUT: AUC25
Form rule: numeric answer, no unit written next to it.

For orientation, consider the following solved cases.
NNC(=O)c1ccncc1 [isoniazid] + COc1c(N2C[C@@H]3CCCN[C@@H]3C2)c(F)cc2c(=O)c(C(=O)O)cn(C3CC3)c12 [moxifloxacin] + CO[C@H]1/C=C/O[C@@]2(C)Oc3c(C)c(O)c4c(O)c(c(/C=N/N5CCN(C6CCCC6)CC5)c(O)c4c3C2=O)NC(=O)/C(C)=C\C=C\[C@H](C)[C@H](O)[C@@H](C)[C@@H](O)[C@@H](C)[C@H](OC(C)=O)[C@@H]1C [rifapentine] = 0.0703
COc1nc2ccc(Br)cc2cc1[C@@H](c1ccccc1)[C@@](O)(CCN(C)C)c1cccc2ccccc12 [bedaquiline] + CC[C@@H](CO)NCCN[C@@H](CC)CO [ethambutol] + NC(=O)c1cnccn1 [pyrazinamide] = 0.0549
CC[C@@H](CO)NCCN[C@@H](CC)CO [ethambutol] + COc1c(N2C[C@@H]3CCCN[C@@H]3C2)c(F)cc2c(=O)c(C(=O)O)cn(C3CC3)c12 [moxifloxacin] + NC(=O)c1cnccn1 [pyrazinamide] = 0.0603

Query compound follows.
QUERY: Give the reported AUC25 for this compound. CC[C@@H](CO)NCCN[C@@H](CC)CO [ethambutol] + CC(=O)NC[C@H]1CN(c2ccc(N3CCOCC3)c(F)c2)C(=O)O1 [linezolid] + O=[N+]([O-])c1cn2c(n1)OC[C@@H](OCc1ccc(OC(F)(F)F)cc1)C2 [pretomanid]
RESULT: 0.104

###

test system: Mycobacterium tuberculosis Erdman (autoluminescent); test: FIC90 (Loewe) at 90% inhibition (log2); higher = more antagonistic; details: in vitro model: acidic pH 5.7; time point: terminal (~4-5 doublings, model-specific)
TEST_READOUT: FIC90
Form rule: numeric answer, no unit written next to it.

For orientation, consider the following solved cases.
COc1c(N2C[C@@H]3CCCN[C@@H]3C2)c(F)cc2c(=O)c(C(=O)O)cn(C3CC3)c12 [moxifloxacin] + CO[C@H]1/C=C/O[C@@]2(C)Oc3c(C)c(O)c4c(O)c(c(/C=N/N5CCN(C6CCCC6)CC5)c(O)c4c3C2=O)NC(=O)/C(C)=C\C=C\[C@H](C)[C@H](O)[C@@H](C)[C@@H](O)[C@@H](C)[C@H](OC(C)=O)[C@@H]1C [rifapentine] = 0.271
CC[C@@H](CO)NCCN[C@@H](CC)CO [ethambutol] + COc1c(N2C[C@@H]3CCCN[C@@H]3C2)c(F)cc2c(=O)c(C(=O)O)cn(C3CC3)c12 [moxifloxacin] = 0.0622

Query compound follows.
QUERY: Give the reported FIC90 for this compound. NNC(=O)c1ccncc1 [isoniazid] + CO[C@H]1/C=C/O[C@@]2(C)Oc3c(C)c(O)c4c(O)c(c(/C=N/N5CCN(C6CCCC6)CC5)c(O)c4c3C2=O)NC(=O)/C(C)=C\C=C\[C@H](C)[C@H](O)[C@@H](C)[C@@H](O)[C@@H](C)[C@H](OC(C)=O)[C@@H]1C [rifapentine]
RESULT: 0.117

###

tested on: Mycobacterium tuberculosis Erdman (autoluminescent); test: AUC25, normalised area under dose response up to IC25 (fraction (0-1)); higher = more potent at low dose; conditions: in vitro model: standard 7H9 glycerol; time point: constant = terminal
TEST_READOUT: AUC25
Form rule: numeric answer, no unit written next to it.

CC[C@@H](CO)NCCN[C@@H](CC)CO [ethambutol] + CO[C@H]1/C=C/O[C@@]2(C)Oc3c(C)c(O)c4c(O)c(c(/C=N/N5CCN(C)CC5)c(O)c4c3C2=O)NC(=O)/C(C)=C\C=C\[C@H](C)[C@H](O)[C@@H](C)[C@@H](O)[C@@H](C)[C@H](OC(C)=O)[C@@H]1C [rifampicin] = 0.0324
NC(=O)c1cnccn1 [pyrazinamide] + CO[C@H]1/C=C/O[C@@]2(C)Oc3c(C)c(O)c4c(O)c(c(/C=N/N5CCN(C6CCCC6)CC5)c(O)c4c3C2=O)NC(=O)/C(C)=C\C=C\[C@H](C)[C@H](O)[C@@H](C)[C@@H](O)[C@@H](C)[C@H](OC(C)=O)[C@@H]1C = 0.0487
CC(=O)NC[C@H]1CN(c2ccc(N3CCOCC3)c(F)c2)C(=O)O1 [linezolid] + NC(=O)c1cnccn1 [pyrazinamide] = 0.0807
COc1nc2ccc(Br)cc2cc1[C@@H](c1ccccc1)[C@@](O)(CCN(C)C)c1cccc2ccccc12 [bedaquiline] + NNC(=O)c1ccncc1 [isoniazid] = 0.0578
CC(C)/N=c1\cc2n(-c3ccc(Cl)cc3)c3ccccc3nc-2cc1Nc1ccc(Cl)cc1 [clofazimine] + NC(=O)c1cnccn1 [pyrazinamide] = 0.11
COc1c(N2C[C@@H]3CCCN[C@@H]3C2)c(F)cc2c(=O)c(C(=O)O)cn(C3CC3)c12 [moxifloxacin] + NC(=O)c1cnccn1 [pyrazinamide] = 0.0774
COc1nc2ccc(Br)cc2cc1[C@@H](c1ccccc1)[C@@](O)(CCN(C)C)c1cccc2ccccc12 [bedaquiline] + CO[C@H]1/C=C/O[C@@]2(C)Oc3c(C)c(O)c4c(O)c(c(/C=N/N5CCN(C)CC5)c(O)c4c3C2=O)NC(=O)/C(C)=C\C=C\[C@H](C)[C@H](O)[C@@H](C)[C@@H](O)[C@@H](C)[C@H](OC(C)=O)[C@@H]1C [rifampicin] = 0.0718
CC[C@@H](CO)NCCN[C@@H](CC)CO [ethambutol] + CC(=O)NC[C@H]1CN(c2ccc(N3CCOCC3)c(F)c2)C(=O)O1 [linezolid] = 0.0844
O=[N+]([O-])c1cn2c(n1)OC[C@@H](OCc1ccc(OC(F)(F)F)cc1)C2 [pretomanid] + NC(=O)c1cnccn1 [pyrazinamide] = 0.067
CC[C@@H](CO)NCCN[C@@H](CC)CO [ethambutol] + NNC(=O)c1ccncc1 [isoniazid] = 0.0635

QUERY: Give the reported AUC25 for this compound. CC(C)/N=c1\cc2n(-c3ccc(Cl)cc3)c3ccccc3nc-2cc1Nc1ccc(Cl)cc1 [clofazimine] + CO[C@H]1/C=C/O[C@@]2(C)Oc3c(C)c(O)c4c(O)c(c(/C=N/N5CCN(C6CCCC6)CC5)c(O)c4c3C2=O)NC(=O)/C(C)=C\C=C\[C@H](C)[C@H](O)[C@@H](C)[C@@H](O)[C@@H](C)[C@H](OC(C)=O)[C@@H]1C [rifapentine]
RESULT: 0.1

QUERY: Give the reported AUC25 for this compound. COc1nc2ccc(Br)cc2cc1[C@@H](c1ccccc1)[C@@](O)(CCN(C)C)c1cccc2ccccc12 [bedaquiline] + CC(C)/N=c1\cc2n(-c3ccc(Cl)cc3)c3ccccc3nc-2cc1Nc1ccc(Cl)cc1 [clofazimine]
RESULT: 0.0822

QUERY: Give the reported AUC25 for this compound. COc1c(N2C[C@@H]3CCCN[C@@H]3C2)c(F)cc2c(=O)c(C(=O)O)cn(C3CC3)c12 [moxifloxacin] + CO[C@H]1/C=C/O[C@@]2(C)Oc3c(C)c(O)c4c(O)c(c(/C=N/N5CCN(C)CC5)c(O)c4c3C2=O)NC(=O)/C(C)=C\C=C\[C@H](C)[C@H](O)[C@@H](C)[C@@H](O)[C@@H](C)[C@H](OC(C)=O)[C@@H]1C [rifampicin]
RESULT: 0.0477

QUERY: Give the reported AUC25 for this compound. CC(C)/N=c1\cc2n(-c3ccc(Cl)cc3)c3ccccc3nc-2cc1Nc1ccc(Cl)cc1 [clofazimine] + CC(=O)NC[C@H]1CN(c2ccc(N3CCOCC3)c(F)c2)C(=O)O1 [linezolid]
RESULT: 0.117
